test system: S. aureus MW2 (NRS123); experiment: microbe, parasite or virus in culture; assay type: cell-based, Staphylococcus aureus; conditions: Staphylococcus aureus, NRS123, passage 5; selection group DAP + TMP/SMX
PARAMETER: log10 of MIC (log10 of the value in µg/mL)
Heads up, the numbers here are log10 of MIC in µg/mL units.

STRUCTURE_AS_SMILES	TEST_RESULT
CN[C@H](CC(C)C)C(=O)N[C@H]1C(=O)N[C@@H](CC(N)=O)C(=O)N[C@H]2C(=O)N[C@H]3C(=O)N[C@H](C(=O)N[C@H](C(=O)O)c4cc(O)cc(O)c4-c4cc3ccc4O)[C@H](O)c3ccc(c(Cl)c3)Oc3cc2cc(c3O[C@@H]2O[C@H](CO)[C@@H](O)[C@H](O)[C@H]2O[C@H]2C[C@](C)(N)[C@H](O)[C@H](C)O2)Oc2ccc(cc2Cl)[C@H]1O	0.90
CC(=O)NC[C@H]1CN(c2ccc(N3CCOCC3)c(F)c2)C(=O)O1	0.00
CCC[C@@H]1C[C@@H](C(=O)N[C@@H]([C@H]2O[C@H](SC)[C@H](O)[C@@H](O)[C@H]2O)[C@H](C)Cl)N(C)C1	-0.90
C=C[C@]1(C)C[C@@H](OC(=O)CSCCN(CC)CC)[C@]2(C)[C@H](C)CC[C@]3(CCC(=O)[C@H]32)[C@@H](C)[C@@H]1O	-0.30
Cn1nnc(-c2ccc(-c3ccc(N4C[C@H](CO)OC4=O)cc3F)cn2)n1	-0.60

// CN(C)[C@@H]1C(O)=C(C(N)=O)C(=O)[C@@]2(O)C(O)=C3C(=O)c4c(O)cccc4[C@@](C)(O)[C@H]3C[C@@H]12 : log10 of MIC value = -0.90
